Target: Synaptic vesicular amine transporter (Rattus norvegicus)
Sequence (Q01827 whole entry): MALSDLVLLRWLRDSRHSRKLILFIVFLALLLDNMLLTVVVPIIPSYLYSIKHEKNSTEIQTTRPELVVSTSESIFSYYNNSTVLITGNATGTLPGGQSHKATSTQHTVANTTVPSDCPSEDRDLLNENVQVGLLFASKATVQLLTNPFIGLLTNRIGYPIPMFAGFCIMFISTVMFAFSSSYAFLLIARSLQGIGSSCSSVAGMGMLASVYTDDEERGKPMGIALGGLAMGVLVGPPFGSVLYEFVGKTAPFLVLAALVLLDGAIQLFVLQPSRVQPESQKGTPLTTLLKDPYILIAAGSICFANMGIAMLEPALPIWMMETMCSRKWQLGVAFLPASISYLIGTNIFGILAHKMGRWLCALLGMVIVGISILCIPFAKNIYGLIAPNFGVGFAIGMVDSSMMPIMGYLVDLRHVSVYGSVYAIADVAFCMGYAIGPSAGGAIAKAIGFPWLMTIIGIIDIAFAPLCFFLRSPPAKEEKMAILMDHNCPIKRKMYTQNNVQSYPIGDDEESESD
Assay: Displacement of [3HDTBZ from VMAT2 in rat whole brain vesicles by liquid scintillation spectrophotometry
Quick list: pKi per entry.
Note on units: pKi is unitless, being -log10 of a concentration expressed in mol/L.

Below, each entry is followed by its recorded pKi result.
>>> meas_value("CCCCS(=O)(=O)OC(C[C@@H]1CCCC(CC(=O)c2ccccc2)N1C)c1ccccc1 (single isomer, unassigned)")
5.70
>>> meas_value("CN1[C@@H](CC(=O)c2ccccc2)CCC[C@H]1C[C@H](OS(=O)(=O)c1ccc2ccccc2c1)c1ccccc1")
5.61
>>> meas_value("CN1[C@@H](CC(=O)c2ccccc2)CCC[C@H]1C[C@H](OS(=O)(=O)c1cccc2ccccc12)c1ccccc1")
5.39
>>> meas_value("CN1C(CC(=O)c2ccccc2)CCC[C@H]1CC(OS(=O)(=O)c1ccccc1)c1ccccc1 (single isomer, unassigned)")
5.46
>>> meas_value("CC(C)S(=O)(=O)OC(C[C@@H]1CCCC(CC(=O)c2ccccc2)N1C)c1ccccc1 (single isomer, unassigned)")
5.68

Query block: // lookup pKi for CN1C(CC(=O)c2ccccc2)CCC[C@H]1CC(OS(=O)(=O)c1ccc(F)cc1)c1ccccc1 (single isomer, unassigned)
Result block: 5.52

Query block: What does the data say about its pKi? Entry: CN1C(CC(=O)c2ccccc2)CCC[C@H]1CC(OS(=O)(=O)c1ccc(Cl)cc1)c1ccccc1 (single isomer, unassigned)
Result block: 5.49

Query block: Please give the measured pKi for this molecule: CN1C(CC(=O)c2ccccc2)CCC[C@H]1CC(OS(=O)(=O)c1ccc([N+](=O)[O-])cc1)c1ccccc1 (single isomer, unassigned)
Result block: 5.37

Query block: Entry under review: CN1C(CC(=O)c2ccccc2)CCC[C@H]1CC(OS(=O)(=O)Cc1ccccc1)c1ccccc1 (single isomer, unassigned) . Reported pKi?
Result block: 5.40

Query block: Which pKi is reported for this molecule? Cc1ccc(S(=O)(=O)OC(C[C@@H]2CCCC(CC(=O)c3ccccc3)N2C)c2ccccc2)cc1 (single isomer, unassigned)
Result block: 4.97

Query block: I have this molecule here, CN1[C@@H](CC(=O)c2ccccc2)CCC[C@H]1C[C@H](OS(=O)(=O)c1cccs1)c1ccccc1 , and I need its recorded pKi.
Result block: 5.37

====

Molecular target: Sodium-dependent dopamine transporter (Rattus norvegicus)
Sequence (P23977 whole entry): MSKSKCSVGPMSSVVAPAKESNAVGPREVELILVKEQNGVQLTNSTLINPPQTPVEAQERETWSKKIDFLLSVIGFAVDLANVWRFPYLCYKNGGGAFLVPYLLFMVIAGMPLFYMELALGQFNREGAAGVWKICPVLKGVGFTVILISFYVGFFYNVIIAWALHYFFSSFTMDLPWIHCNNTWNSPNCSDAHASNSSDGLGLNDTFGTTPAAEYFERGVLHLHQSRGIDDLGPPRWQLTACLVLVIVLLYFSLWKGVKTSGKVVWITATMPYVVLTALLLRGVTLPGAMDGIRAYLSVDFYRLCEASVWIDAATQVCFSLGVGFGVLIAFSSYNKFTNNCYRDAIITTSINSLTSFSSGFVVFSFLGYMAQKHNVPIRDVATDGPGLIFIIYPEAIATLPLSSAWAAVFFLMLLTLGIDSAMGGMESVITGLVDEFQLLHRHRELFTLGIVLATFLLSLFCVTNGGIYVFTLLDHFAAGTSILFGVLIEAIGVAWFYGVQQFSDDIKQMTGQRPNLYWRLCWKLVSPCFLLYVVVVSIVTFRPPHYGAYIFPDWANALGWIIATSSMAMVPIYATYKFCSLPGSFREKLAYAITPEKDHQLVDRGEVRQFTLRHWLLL
Assay: Inhibition of [3H]DA uptake at DAT in rat brain striatal synaptosomes by liquid scintillation spectrophotometry
Assay type: subcellular
# Yes = Ki below 10 µM (exclusive); No = Ki at/above 10 µM

Some entries whose results are on file:
>>> assigned_class("CCCCS(=O)(=O)OC(C[C@@H]1CCCC(CC(=O)c2ccccc2)N1C)c1ccccc1 (single isomer, unassigned)")
"No"
>>> assigned_class("CN1C(CC(=O)c2ccccc2)CCC[C@H]1CC(OS(=O)(=O)c1ccccc1)c1ccccc1 (single isomer, unassigned)")
"No"
>>> assigned_class("CCC(=O)OC(C[C@@H]1CCCC(CC(=O)c2ccccc2)N1C)c1ccccc1 (single isomer, unassigned)")
"Yes"

Query block: # strict comparison: is reported Ki < 10 µM? input = CN1[C@@H](CC(=O)c2ccccc2)CCC[C@H]1C[C@H](OS(=O)(=O)c1ccc2ccccc2c1)c1ccccc1
Result block: No

Query block: Take the compound CC(=O)OC(C[C@@H]1CCCC(CC(=O)c2ccccc2)N1C)c1ccccc1 (single isomer, unassigned) and say whether its Ki is less than 10 µM.
Result block: Yes

Query block: Please let me know if CN1[C@@H](CC(=O)c2ccccc2)CCC[C@H]1C[C@H](OS(=O)(=O)c1cccs1)c1ccccc1 shows Ki below 10 µM.
Result block: No

Query block: Answer whether the compound CN1[C@@H](CC(=O)c2ccccc2)CCC[C@H]1C[C@H](OC(=O)c1cccs1)c1ccccc1 has Ki strictly less than 10 µM
Result block: Yes
